Just for reference, patent US6093838A is where these values come from.

assayed system: RARα (Homo sapiens, UniProt P10276)
Sequence (P10276 whole entry): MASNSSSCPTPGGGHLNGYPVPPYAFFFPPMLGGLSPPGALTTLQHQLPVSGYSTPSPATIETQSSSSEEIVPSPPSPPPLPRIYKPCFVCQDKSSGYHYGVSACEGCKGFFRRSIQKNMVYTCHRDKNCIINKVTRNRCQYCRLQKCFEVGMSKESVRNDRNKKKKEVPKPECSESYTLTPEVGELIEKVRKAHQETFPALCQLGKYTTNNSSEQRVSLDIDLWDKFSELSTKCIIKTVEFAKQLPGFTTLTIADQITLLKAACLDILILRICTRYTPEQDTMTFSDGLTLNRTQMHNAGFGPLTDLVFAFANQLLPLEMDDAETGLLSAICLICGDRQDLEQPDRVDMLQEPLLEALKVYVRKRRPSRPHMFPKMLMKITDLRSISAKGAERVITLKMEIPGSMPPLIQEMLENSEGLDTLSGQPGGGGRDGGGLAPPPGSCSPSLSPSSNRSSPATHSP
method notes: ligand binding assay, RARα
measurement context: read-out: RAR Bind. Ki α
pKi: −log10 of the molar value.
endpoint: pKi

The measured pKi associated with CCN(c1ccc(C(=O)O)cc1)c1cc(C(C)(C)C)c2c(c1)C(C)(C)CO2 reads < 6.00

The measured pKi associated with Cc1c(N(c2ccc(C(=O)O)cc2)C(C)C)cc2c(c1C(C)(C)C)OCC2(C)C reads 4.92

The measured pKi associated with CC(C)N(c1ccc(C(=O)O)cc1)c1ccc2c(c1)C(C)(C)OC2(C)C reads < 5.00

The measured pKi associated with Cc1cc(N(C)c2ccc(C(=O)O)cc2)cc2c1OCC2(C)C reads < 4.52

The measured pKi associated with CCc1cc(N(c2ccc(C(=O)O)cc2)C(C)C)cc2c1OCC2(C)C reads < 5.00

The measured pKi associated with CC(C)c1cc(N(c2ccc(C(=O)O)cc2)C(C)C)cc2c1OCC2(C)C reads < 5.00

The measured pKi associated with CCN(c1ccc(C(=O)O)cc1)c1cc(C)c2c(c1)C(C)(C)CO2 reads 4.52

The measured pKi associated with CC(C)N(c1ccc(C(=O)O)cc1)c1cc(C(C)(C)C)c2c(c1)C(C)(C)CO2 reads < 6.00
